Target: cytoplasmic kinase domain of human Flt-3 (GST-Flt-3) (Homo sapiens)
Sequence (P36888 563-993): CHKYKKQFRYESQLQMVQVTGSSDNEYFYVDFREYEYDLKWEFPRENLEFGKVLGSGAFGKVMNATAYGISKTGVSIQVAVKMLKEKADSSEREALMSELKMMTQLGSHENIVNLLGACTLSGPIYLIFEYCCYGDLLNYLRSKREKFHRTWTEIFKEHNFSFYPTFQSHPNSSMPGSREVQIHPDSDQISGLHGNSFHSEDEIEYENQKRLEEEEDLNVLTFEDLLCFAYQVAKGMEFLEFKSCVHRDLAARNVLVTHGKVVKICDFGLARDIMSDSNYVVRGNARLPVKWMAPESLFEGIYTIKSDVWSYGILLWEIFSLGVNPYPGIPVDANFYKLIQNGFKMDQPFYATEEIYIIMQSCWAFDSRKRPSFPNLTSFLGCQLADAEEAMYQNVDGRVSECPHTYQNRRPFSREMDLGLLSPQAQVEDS
metric-name: pIC50
Interpret pIC50 as the negative base-10 log of the concentration measured in mol/L.

Problem: # input compound: Oc1ccc(-c2cnc(Nc3ccc(OCCN4CCCC4)cc3)s2)cc1 [Example 7] ; wanted: its pIC50
Solution: 7.46

Problem: # input compound: COc1ccc(-c2cnc(Nc3ccc(N4CCN(C)CC4)cc3)s2)cc1 [Example 5] ; wanted: its pIC50
Solution: 7.62

Problem: # input compound: CCN(CC)CCOc1ccc(Nc2cc(-c3ccsc3)[nH]n2)cc1 [Example 37] ; wanted: its pIC50
Solution: 7.51
